Molecular target: human TNIK (N-terminal segment, TNIK_N, residues 1-314) (Homo sapiens (Human), UniProt Q9UKE5)
Sequence (Q9UKE5 1-314): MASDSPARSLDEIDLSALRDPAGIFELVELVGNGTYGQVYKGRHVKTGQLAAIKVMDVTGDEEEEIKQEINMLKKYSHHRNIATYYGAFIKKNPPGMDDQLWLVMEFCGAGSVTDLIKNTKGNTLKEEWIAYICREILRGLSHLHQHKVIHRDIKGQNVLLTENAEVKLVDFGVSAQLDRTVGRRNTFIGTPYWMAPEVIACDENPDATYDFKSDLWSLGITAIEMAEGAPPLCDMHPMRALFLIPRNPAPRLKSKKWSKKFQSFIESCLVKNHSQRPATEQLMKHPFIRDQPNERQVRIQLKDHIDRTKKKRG
pIC50: −log10 of the molar value.
measured-endpoint: pIC50

Example results:
>>> reading("NC(=O)c1nc(Nc2ccc3ccccc3c2)sc1NC(=O)C#CCCCn1cncn1 [Example 233]")
7.97
>>> reading("NC(=O)c1nc(Nc2ccc3ccccc3c2)sc1NC(=O)c1ccc(NCCO)cc1 [Example 10]")
7.97
>>> reading("CN(C)CCNc1ccc(C(=O)Nc2sc(Nc3ccc4ccccc4c3)nc2C(N)=O)cc1 [Example 11]")
8.07
>>> reading("NC(=O)c1nc(Nc2ccc3cc(CO)ccc3c2)sc1NC(=O)C1CC1 [Example 138]")
8.24

(P) NC(=O)c1nc(Nc2ccc3ccccc3c2)sc1NC(=O)C#CCCCn1ccnc1 [Example 234]
(Q) NC(=O)c1nc(Nc2cccc3ncccc23)sc1NC(=O)c1ccc(Cn2ccnc2)cc1 [Example 254]
(R) Cc1noc(Cc2ccc(C(=O)Nc3sc(Nc4ccc5ccccc5c4)nc3C(N)=O)cc2)n1 [Example 256]
// query # sort list by recorded pIC50, greatest to least Submit the labels in the order that the ranking request calls for.
// result Q, P, R

* * *

Target: human TNIK (N-terminal segment, TNIK_N, residues 1-314) (Homo sapiens (Human))
Test: TNIK kinase assay (mobility shift)
Assay type: biochemical
Settings: TNIK_N kinase activity, 25 μM ATP, 1 h at room temperature
measured-endpoint: IC50 (nM)

>>> reading("C[C@H](O)CNc1ccc(C(=O)Nc2sc(Nc3ccc4ccccc4c3)nc2C(N)=O)cc1")
15.1
>>> reading("NC(=O)c1nc(Nc2ccc3ccccc3c2)sc1NC(=O)c1ccc(CN2CCOCC2)cc1")
8.6
>>> reading("Cc1ccc(C(=O)Nc2sc(Nc3ccc4cc(CO)ccc4c3)nc2C(N)=O)s1")
11.1
>>> reading("NC(=O)c1nc(Nc2ccc3cc(F)ccc3c2)sc1NC(=O)c1ccc(Cn2ccnc2)cc1")
10.1
>>> reading("CC(O)CNc1ccc(C(=O)Nc2sc(Nc3ccc4ccccc4c3)nc2C(N)=O)cc1 (stereo not drawn)")
10.7

(1) NCCNc1ccc(C(=O)Nc2sc(Nc3ccc4ccccc4c3)nc2C(N)=O)cc1
(2) NC(=O)c1nc(Nc2ccc3ccc(F)cc3c2)sc1NC(=O)c1ccc(NCCO)cc1
// query Consider entries 1 and 2 . Which has the numerically lower IC50? Which one? Tell me its label.
// result 1

(I) NC(=O)c1nc(Nc2ccc3ccccc3c2)sc1NC(=O)c1ccc(N2CCN(CCO)CC2)cc1
(II) C[C@@H](O)CNc1ccc(C(=O)Nc2sc(Nc3ccc4ccccc4c3)nc2C(N)=O)cc1
// query Consider entries I and II . Which has the numerically lower IC50? Which one? Tell me its label.
// result I
